biological target: inducible penicillinase from Staphylococcus aureus 1059B (Staphylococcus aureus); construct: the inducible penicillinase from Staphylococcus aureus 1059B; endogenous in cells; host or cells: Staphylococcus aureus 1059B; test: Cell-free enzyme assay, inhibition of nitrocefin hydrolysis; format: biochemical; settings: preincubated with enzyme 20 min, 30° C., pH 7; nitrocefin substrate; read-out: I50, Staphylococcus aureus
result_type: IC50 (µM)

compound | observed_result
Cc1onc(-c2ccccc2Cl)c1C(=O)N[C@@H]1C(=O)N2[C@@H]1SC(C)(C)[C@@H]2C(=O)O [Cloxacillin] | 365
Cc1onc(-c2c(Cl)cccc2Cl)c1C(=O)N[C@@H]1C(=O)N2[C@@H]1SC(C)(C)[C@@H]2C(=O)O [Dicloxacillin] | 96

###

The compounds listed here are annotated with their IC50.
biological target: constitutive broad-spectrum TEM type beta-lactamase mediated by the resistance transfer factor R1 in Escherichia coli 1263B (Escherichia coli, UniProt P62593); construct: mediated by the resistance transfer factor R1 in Escherichia coli 1263B; endogenous in cells; assay: Cell-free enzyme assay, inhibition of nitrocefin hydrolysis; conditions: preincubated with enzyme 20 min, 30° C., pH 7; nitrocefin substrate; read-out: I50, Escherichia coli R1
Sequence (P62593 24-286 limits assumed): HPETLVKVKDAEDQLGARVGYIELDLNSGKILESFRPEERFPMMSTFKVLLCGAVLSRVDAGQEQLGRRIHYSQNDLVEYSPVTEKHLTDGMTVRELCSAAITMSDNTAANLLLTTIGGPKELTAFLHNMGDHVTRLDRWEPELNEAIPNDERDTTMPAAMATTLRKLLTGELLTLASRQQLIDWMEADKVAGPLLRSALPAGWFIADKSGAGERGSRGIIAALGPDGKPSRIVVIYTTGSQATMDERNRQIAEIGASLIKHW
result_type: IC50

sample_smiles | observed_result
Cc1onc(-c2c(Cl)cccc2Cl)c1C(=O)N[C@@H]1C(=O)N2[C@@H]1SC(C)(C)[C@@H]2C(=O)O | 32 µM
C[C@]12C[C@@]1(C(=O)O)N1C(=O)C[C@H]1S2(=O)=O | 1.1 µM
Cc1onc(-c2ccccc2Cl)c1C(=O)N[C@@H]1C(=O)N2[C@@H]1SC(C)(C)[C@@H]2C(=O)O | 68 µM

###

biological target: type Ia cephalosporinase from Enterobacter cloacae (Enterobacter cloacae); construct: purchased Miles Laboratories; test: Cell-free enzyme assay, inhibition of nitrocefin hydrolysis; type: biochemical; settings: preincubated with enzyme 20 min, 30° C., pH 7; nitrocefin substrate; read-out: I50, Enterobacter cloacae
pIC50: −log10 of the molar value.
Below is a list of entries, each paired with its recorded pIC50 value.
result_type: pIC50

sample_smiles | result_type | observed_result
Cc1onc(-c2ccccc2Cl)c1C(=O)N[C@@H]1C(=O)N2[C@@H]1SC(C)(C)[C@@H]2C(=O)O | pIC50 | 8.82
Cc1onc(-c2c(Cl)cccc2Cl)c1C(=O)N[C@@H]1C(=O)N2[C@@H]1SC(C)(C)[C@@H]2C(=O)O | pIC50 | 8.85

###

target: inducible penicillinase from Staphylococcus aureus 1059B (Staphylococcus aureus, UniProt P00807); construct: the inducible penicillinase from Staphylococcus aureus 1059B; endogenous in cells; host or cells: Staphylococcus aureus 1059B; test: Cell-free enzyme assay, inhibition of nitrocefin hydrolysis; format: biochemical
Sequence (P00807 25-281): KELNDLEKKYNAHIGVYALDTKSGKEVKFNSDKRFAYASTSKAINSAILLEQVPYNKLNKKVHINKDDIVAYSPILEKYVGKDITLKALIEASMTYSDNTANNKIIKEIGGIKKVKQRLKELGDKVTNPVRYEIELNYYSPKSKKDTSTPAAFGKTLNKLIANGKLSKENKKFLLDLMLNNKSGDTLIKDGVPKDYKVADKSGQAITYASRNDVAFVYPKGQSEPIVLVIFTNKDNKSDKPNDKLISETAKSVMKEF
pIC50: −log10 of the molar value.
result_type: pIC50

sample_smiles | observed_result
C[C@]12C[C@@]1(C(=O)O)N1C(=O)C[C@H]1S2(=O)=O | 5.17

###

target: type Ia cephalosporinase from Enterobacter cloacae (Enterobacter cloacae, UniProt P05364); construct: purchased Miles Laboratories; assay: Cell-free enzyme assay, inhibition of nitrocefin hydrolysis; format: biochemical
Sequence (P05364 21-381): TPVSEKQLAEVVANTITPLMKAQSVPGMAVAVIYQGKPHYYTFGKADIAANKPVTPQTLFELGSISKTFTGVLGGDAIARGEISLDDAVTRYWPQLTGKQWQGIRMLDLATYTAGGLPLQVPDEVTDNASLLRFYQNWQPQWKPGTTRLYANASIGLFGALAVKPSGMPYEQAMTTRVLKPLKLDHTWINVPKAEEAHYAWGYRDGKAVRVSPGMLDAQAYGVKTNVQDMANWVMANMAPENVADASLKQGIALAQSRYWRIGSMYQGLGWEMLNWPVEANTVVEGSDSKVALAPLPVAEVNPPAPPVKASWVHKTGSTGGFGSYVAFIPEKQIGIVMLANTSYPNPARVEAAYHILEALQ
pIC50: −log10 of the molar value.
result_type: pIC50

sample_smiles | result_type | observed_result
C[C@]12C[C@@]1(C(=O)O)N1C(=O)C[C@H]1S2(=O)=O | pIC50 | 4.16
